Where do these numbers come from? They come from the supplement of paper PMC10065799.

test system: Fer (mouse); test: phosphorylation enrichment, bacterial display (enrichment ratio); higher = better substrate or ligand; peptides without Tyr show the background
Quick rule: phosphorylation enrichment of at least 0.5 means true, below that means false.

# example entries with known answers
{"sequence-input": "EKKDVYKAGEQ [CFH_Y1008]", "category": "true"}
{"sequence-input": "LFRFGYANTSE [SI_Y1233_C1229Y_YF]", "category": "false"}
{"sequence-input": "RTLIRYANLGN [BEST1_Y131]", "category": "true"}
{"sequence-input": "NSIGNYFKPWF [DHCR24_Y299_YF]", "category": "false"}
{"sequence-input": "IHFAIYFLKYS [ARMC9_Y107_L108F]", "category": "true"}
{"sequence-input": "HSGVSYYINLC [IGF2R_Y2024_N2020S]", "category": "true"}
{"sequence-input": "DGMADCSDPSY [CDC5L_Y459_Y459C]", "category": "true"}
{"sequence-input": "RPGSGYTNIMQ [PKLR_Y564_R569Q]", "category": "false"}
{"sequence-input": "MECLPYGSLRD [JAK2_Y934_Y931C]", "category": "true"}
{"sequence-input": "SLNEEYTKNKT [MSH2_Y563]", "category": "false"}

**Q:** Record DTSKMYIPHTD [EXPH5_Y782] ; criterion: phosphorylation enrichment no lower than 0.5. Met?
**A:** false

**Q:** Record YPPTHYIRRVP [SLC4A11_Y820] ; criterion: phosphorylation enrichment no lower than 0.5. Met?
**A:** false

* * *

target: Jak2 (UniProt O60674); assay: phosphorylation enrichment, bacterial display (enrichment ratio); higher = better substrate or ligand; peptides without Tyr show the background
Sequence (O60674 whole entry, looked up): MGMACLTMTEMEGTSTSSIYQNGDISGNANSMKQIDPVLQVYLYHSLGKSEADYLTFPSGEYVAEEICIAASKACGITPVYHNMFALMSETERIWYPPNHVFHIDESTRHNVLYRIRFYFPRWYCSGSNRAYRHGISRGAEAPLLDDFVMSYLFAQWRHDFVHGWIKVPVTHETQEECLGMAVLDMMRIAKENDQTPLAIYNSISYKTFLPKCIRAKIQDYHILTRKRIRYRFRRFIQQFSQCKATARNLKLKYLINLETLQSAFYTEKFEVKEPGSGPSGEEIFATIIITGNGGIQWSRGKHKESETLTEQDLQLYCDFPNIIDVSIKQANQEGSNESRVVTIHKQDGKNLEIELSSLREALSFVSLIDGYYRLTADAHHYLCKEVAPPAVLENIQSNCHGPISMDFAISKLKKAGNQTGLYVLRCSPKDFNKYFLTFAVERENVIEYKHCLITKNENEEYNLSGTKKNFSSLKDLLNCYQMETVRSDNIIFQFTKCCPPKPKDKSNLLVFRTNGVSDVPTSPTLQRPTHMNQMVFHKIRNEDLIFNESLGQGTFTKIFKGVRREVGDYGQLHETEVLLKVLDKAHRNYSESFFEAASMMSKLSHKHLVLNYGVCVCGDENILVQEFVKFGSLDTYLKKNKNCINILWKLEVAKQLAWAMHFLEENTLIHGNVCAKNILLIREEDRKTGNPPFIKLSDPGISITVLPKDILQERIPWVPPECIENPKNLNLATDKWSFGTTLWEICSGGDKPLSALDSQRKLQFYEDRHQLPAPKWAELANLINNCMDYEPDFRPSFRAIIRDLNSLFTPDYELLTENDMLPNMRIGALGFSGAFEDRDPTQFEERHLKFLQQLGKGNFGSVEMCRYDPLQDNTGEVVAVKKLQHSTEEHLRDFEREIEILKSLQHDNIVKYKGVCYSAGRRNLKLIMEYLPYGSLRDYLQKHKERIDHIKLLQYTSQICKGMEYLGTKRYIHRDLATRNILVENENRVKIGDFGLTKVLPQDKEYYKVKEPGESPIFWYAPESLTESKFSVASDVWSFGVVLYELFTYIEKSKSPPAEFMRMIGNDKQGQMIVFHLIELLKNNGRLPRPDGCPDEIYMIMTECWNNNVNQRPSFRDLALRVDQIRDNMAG
Quick rule: phosphorylation enrichment of at least 1 means True, below that means False.

# example entries with known answers
{"sequence-input": "VVLVSYVPSSQ [SH2B1_Y624]", "category": "False"}
{"sequence-input": "SNMPSYSGHFT [GRIN2A_Y1224_T1223S]", "category": "False"}
{"sequence-input": "DKMEAYNINET [TEKT4_Y210_D213N]", "category": "True"}
{"sequence-input": "HLVLNYGVCVC [JAK2_Y613]", "category": "True"}
{"sequence-input": "CTTIHYNFMRN [TP53_Y234_C238R_YF]", "category": "False"}

**Q:** Record DKATEYIQYVR [MAX_Y70_M74V] ; criterion: phosphorylation enrichment no lower than 1. Met?
**A:** False

**Q:** Record LTERGYSFVTT [ACTA1_Y200] ; criterion: phosphorylation enrichment no lower than 1. Met?
**A:** True

* * *

target: EPHB1 (UniProt P54762); assay: phosphorylation enrichment, bacterial display (enrichment ratio); higher = better substrate or ligand; peptides without Tyr show the background
Sequence (P54762 whole entry, looked up): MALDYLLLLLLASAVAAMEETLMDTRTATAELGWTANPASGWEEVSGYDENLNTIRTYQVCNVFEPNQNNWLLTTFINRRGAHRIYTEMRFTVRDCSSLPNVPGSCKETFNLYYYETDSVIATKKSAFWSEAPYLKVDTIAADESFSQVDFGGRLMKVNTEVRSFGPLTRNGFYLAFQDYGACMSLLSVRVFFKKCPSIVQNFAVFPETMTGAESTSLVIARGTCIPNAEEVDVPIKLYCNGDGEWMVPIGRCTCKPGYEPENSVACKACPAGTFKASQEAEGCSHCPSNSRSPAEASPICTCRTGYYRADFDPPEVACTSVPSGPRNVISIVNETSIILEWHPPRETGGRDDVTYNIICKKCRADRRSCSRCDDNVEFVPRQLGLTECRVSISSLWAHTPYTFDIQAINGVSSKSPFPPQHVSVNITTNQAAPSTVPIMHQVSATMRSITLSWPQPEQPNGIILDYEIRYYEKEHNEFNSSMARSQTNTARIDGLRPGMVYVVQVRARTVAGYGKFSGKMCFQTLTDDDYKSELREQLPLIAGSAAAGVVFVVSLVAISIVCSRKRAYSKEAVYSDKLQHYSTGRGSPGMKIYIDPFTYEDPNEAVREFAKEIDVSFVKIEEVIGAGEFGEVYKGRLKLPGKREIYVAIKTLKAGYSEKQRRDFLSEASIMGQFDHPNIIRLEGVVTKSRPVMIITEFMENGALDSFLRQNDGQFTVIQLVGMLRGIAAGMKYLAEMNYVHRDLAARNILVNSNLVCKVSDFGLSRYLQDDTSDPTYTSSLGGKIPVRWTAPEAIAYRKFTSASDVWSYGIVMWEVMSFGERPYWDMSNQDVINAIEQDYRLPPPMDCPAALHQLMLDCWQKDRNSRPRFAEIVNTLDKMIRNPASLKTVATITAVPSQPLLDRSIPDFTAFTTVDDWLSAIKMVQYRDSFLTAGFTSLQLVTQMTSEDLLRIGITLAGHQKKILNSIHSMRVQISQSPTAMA
Quick rule: phosphorylation enrichment of at least 0.7 means satisfied, below that means not satisfied.

**Q:** Record RMETEYGPSVT [MXRA5_Y2717] ; criterion: phosphorylation enrichment no lower than 0.7. Met?
**A:** satisfied

**Q:** Record SIKDKHVTALY [KCNH2_Y611_Y611H] ; criterion: phosphorylation enrichment no lower than 0.7. Met?
**A:** not satisfied

* * *

target: SHP2-C SH2; experiment: SH2 binding enrichment of the phosphorylated peptide, bacterial display (enrichment ratio); higher = better substrate or ligand; peptides without Tyr show the background;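 also: peptide library displayed on the E. coli surface as eCPX fusions, selected cells deep-sequenced, score is each peptide's frequency after selection divided by its frequency in the input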
// classify(record): look up SH2 binding enrichment in ranges lower band (below 0.7), central band (0.7 to below 0.9), upper band (0.9 or more)

# example entries with known answers
{"sequence-input": "ITNHIYTWVDP [DFNB31_Y234_V229I]", "category": "central band"}
{"sequence-input": "YQGGTYSKAST [FGG_Y380]", "category": "lower band"}
{"sequence-input": "LHAAAYQNALA [UQCRC2_Y182_R183Q]", "category": "lower band"}
{"sequence-input": "HFGCVYHGTLL [MET_Y1093]", "category": "central band"}

**Q:** Which of the defined bands does the recorded SH2 binding enrichment of MHFSNYVSKGS [PDGFRA_Y849_D846Y_YF] sit within?
**A:** lower band

**Q:** Which of the defined bands does the recorded SH2 binding enrichment of FQKNIYSEELR [LMNA_Y211] sit within?
**A:** upper band

**Q:** Which of the defined bands does the recorded SH2 binding enrichment of VTHKEYFIFLE [CAMKV_Y95_R92H] sit within?
**A:** upper band

**Q:** Which of the defined bands does the recorded SH2 binding enrichment of FFVVEYRDQKP [MUC17_Y4332_YF] sit within?
**A:** upper band

**Q:** Which of the defined bands does the recorded SH2 binding enrichment of FSEVRYMKEPF [HIPK4_Y170_V171M_YF] sit within?
**A:** lower band

**Q:** Which of the defined bands does the recorded SH2 binding enrichment of HITQVYGFYDE [PPP2CA_Y127_Q122H] sit within?
**A:** lower band

**Q:** Which of the defined bands does the recorded SH2 binding enrichment of QYNMQYSSSAA [ERBB2IP_Y981_I979M] sit within?
**A:** upper band

**Q:** Which of the defined bands does the recorded SH2 binding enrichment of YKWAVYCIIGR [NUP93_Y391_R388W] sit within?
**A:** upper band

**Q:** Which of the defined bands does the recorded SH2 binding enrichment of QWLEQYTQAIE [LSP1_Y234] sit within?
**A:** lower band

**Q:** Which of the defined bands does the recorded SH2 binding enrichment of PATINYLFEKG [NDUFS8_Y84_P85L] sit within?
**A:** lower band
